Below, each entry is listed with its recorded SIGNAL.
# target or system: alkaline phosphatase (Bos taurus, UniProt P19111)
# Sequence (P19111 20-506 limits assumed): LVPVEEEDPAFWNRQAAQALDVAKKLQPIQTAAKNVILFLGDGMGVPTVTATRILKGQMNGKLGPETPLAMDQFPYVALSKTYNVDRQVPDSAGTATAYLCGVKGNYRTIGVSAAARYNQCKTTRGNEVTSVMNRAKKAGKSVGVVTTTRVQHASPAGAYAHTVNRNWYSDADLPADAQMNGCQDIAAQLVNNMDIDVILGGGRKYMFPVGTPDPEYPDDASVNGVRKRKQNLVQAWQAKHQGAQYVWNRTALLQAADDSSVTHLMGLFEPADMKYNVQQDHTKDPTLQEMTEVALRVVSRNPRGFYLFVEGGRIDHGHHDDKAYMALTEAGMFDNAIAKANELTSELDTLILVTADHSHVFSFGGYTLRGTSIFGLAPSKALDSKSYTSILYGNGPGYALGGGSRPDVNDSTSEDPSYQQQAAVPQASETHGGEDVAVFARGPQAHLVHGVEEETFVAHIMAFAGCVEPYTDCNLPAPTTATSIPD
# assay text: Chemiluminescent signal and signal:background with enhancer polymers (Example XVII)
# Format: biochemical
# test parameters: polymer TBQ; 5 min

[
  {
    "molecule": "COC1(c2cccc(OP(=O)(O)O)c2)OOC12C1CC3CC2CC(O)(C3)C1 (single isomer, unassigned) [B-OH-AMPPD]",
    "SIGNAL": 15508.5
  },
  {
    "molecule": "COC1(c2cccc(OP(=O)(O)O)c2)OOC12C1CC3CC2CC(Cl)(C3)C1 (stereo not shown) [Cl-AMPPD]",
    "SIGNAL": 148394.6
  },
  {
    "molecule": "COC1(c2cccc(OP(=O)(O)O)c2)OOC12C1CC3CC2CC(O)(C3)C1 (single isomer, unassigned) [A-OH-AMPPD]",
    "SIGNAL": 37244.5
  },
  {
    "molecule": "COC1(c2cccc(OP(=O)(O)O)c2)OOC12C1CC3CC(C1)CC2C3 (stereo not shown) [AMPPD, reference compound]",
    "SIGNAL": 94429.4
  }
]

----------
# target or system: alkaline phosphatase (Bos taurus)
# assay text: Chemiluminescent signal and signal:background with enhancer polymers (Example XVII)
# Assay type: biochemical
# test parameters: polymer DMQ TEQ; time 0 (background, before enzyme)
Below, each entry is listed with its recorded SIGNAL.
measured property: SIGNAL

[
  {
    "compound": "COC1(c2cccc(OP(=O)(O)O)c2)OOC12C1CC3CC2CC(O)(C3)C1 (single isomer, unassigned) [A-OH-AMPPD]",
    "meas value": 90.8
  },
  {
    "compound": "COC1(c2cccc(OP(=O)(O)O)c2)OOC12C1CC3CC2CC(O)(C3)C1 (single isomer, unassigned) [B-OH-AMPPD]",
    "meas value": 145.5
  },
  {
    "compound": "COC1(c2cccc(OP(=O)(O)O)c2)OOC12C1CC3CC(C1)CC2C3 (stereo not shown) [AMPPD, reference compound]",
    "meas value": 245.2
  },
  {
    "compound": "COC1(c2cccc(OP(=O)(O)O)c2)OOC12C1CC3CC2CC(Cl)(C3)C1 (stereo not shown)",
    "meas value": 77.2
  }
]

----------
# target or system: alkaline phosphatase (Bos taurus, UniProt P19111)
# assay text: Chemiluminescent signal and signal:background with enhancer polymers (Example XVII)
# Assay type: biochemical
# test parameters: polymer TBQ; time 0 (background, before enzyme)

[
  {
    "compound": "COC1(c2cccc(OP(=O)(O)O)c2)OOC12C1CC3CC2CC(O)(C3)C1 (single isomer, unassigned) [A-OH-AMPPD]",
    "SIGNAL": 101.8
  },
  {
    "compound": "COC1(c2cccc(OP(=O)(O)O)c2)OOC12C1CC3CC2CC(Cl)(C3)C1 (stereo not shown) [Cl-AMPPD]",
    "SIGNAL": 118.8
  },
  {
    "compound": "COC1(c2cccc(OP(=O)(O)O)c2)OOC12C1CC3CC2CC(O)(C3)C1 (single isomer, unassigned) [B-OH-AMPPD]",
    "SIGNAL": 158.9
  },
  {
    "compound": "COC1(c2cccc(OP(=O)(O)O)c2)OOC12C1CC3CC(C1)CC2C3 (stereo not shown) [AMPPD, reference compound]",
    "SIGNAL": 493.9
  }
]
